# TGI values compiled below
# Tested on: MCF7 breast
# Method Summary: NCI tumour cell line growth inhibition, 48 h

Molecule: NC(=S)N/N=C/c1cc(CN2CCOCC2)c(N)cn1
System: MCF7 breast
TGI: > 100 µM

Molecule: CCOP(=O)(CS(C)=O)O[C@@H]1C[C@H](C)CC[C@H]1C(C)C (stereo partly specified)
System: MCF7 breast
TGI: 11.1 µM

Molecule: COc1ccc(NC=O)c(C(O)CCNC(C)=O)c1 (stereo unspecified)
System: MCF7 breast
TGI: > 100 µM

Molecule: Cc1ccc2c(c1)C(C1Cc3c(C)cccc3C1=O)OC2=O (stereo unspecified)
System: MCF7 breast
TGI: > 100 µM

Molecule: Nc1cc(N)c2nc(-c3ccccc3)c(Nc3ccc(F)cc3)nc2c1
System: MCF7 breast
TGI: > 100 µM

Molecule: CCCCCCN(C(=O)Oc1ccccc1)C(C#N)c1ccccc1 (stereo unspecified)
System: MCF7 breast
TGI: > 100 µM

---

# Test system: SK-OV-3 ovarian
# Method Summary: NCI tumour cell line growth inhibition, 48 h; in the data active = GI50 below about 0.43 µM; inactive = the rest
Labels: Y (active), N (inactive)

Compound: COC(=O)C1=CN(CC2=CC(=O)C(C)=CC2=O)C=C(C(=O)OC)C1c1cccc(OC)c1OC
System: SK-OV-3 ovarian
Assigned Class: N
--
Compound: CN(C)c1cccc2[nH]c(-c3[nH]ncc3Nc3ccnc(N)n3)nc12
System: SK-OV-3 ovarian
Assigned Class: Y
--
Compound: O=c1cc/c(=N\Nc2ccccc2)c(=O)/c1=N/Nc1ccccc1
System: SK-OV-3 ovarian
Assigned Class: N
--
Compound: Cc1ccc(NC(=O)c2ccnc(C(F)(F)F)c2)cc1-c1cc(OCCO)nc(N2CCOCC2)c1
System: SK-OV-3 ovarian
Assigned Class: N
--
Compound: O=C(O)C(/C=C/c1ccco1)=N\Nc1nc(-c2ccc(Cl)cc2)cs1
System: SK-OV-3 ovarian
Assigned Class: N
--
Compound: Nc1cc(N)c2nc(-c3ccccc3)c(Nc3ccc(F)cc3)nc2c1
System: SK-OV-3 ovarian
Assigned Class: N
--
Compound: C[C@]12CC[C@H]3[C@@H](CC=C4C[C@@H](O)CC[C@@]43C)[C@@H]1C/C(=C\c1cccc(OCCN3CCOCC3)c1)[C@@H]2O
System: SK-OV-3 ovarian
Assigned Class: N
--
Compound: COc1ccc(NC2=C(Sc3nc(C)cc(C)n3)C(=O)N(Cc3ccccc3)C2=O)cc1Cl
System: SK-OV-3 ovarian
Assigned Class: N
--
Compound: CCCCCCN1C(=O)/C(=c2\sc3n(c2=O)C2C(NN=3)N(CC)C(=O)N2CC)c2ccccc21 (stereo not given)
System: SK-OV-3 ovarian
Assigned Class: N
--
Compound: Nc1nc(-n2cccn2)nc(-n2cccn2)c1Br
System: SK-OV-3 ovarian
Assigned Class: N
--
Compound: COc1ccc(/C=C/C(=O)c2ccc(Nc3ncnc4ccccc34)cc2)cc1OC
System: SK-OV-3 ovarian
Assigned Class: N
--
Compound: S=C(Nc1ccccc1)c1ccccn1
System: SK-OV-3 ovarian
Assigned Class: N
--
Compound: COc1cc2c(cc1OCCCCCOc1cc(-c3ccc(F)cc3)nc(C)n1)N=C[C@@H]1CCCN1C2=O
System: SK-OV-3 ovarian
Assigned Class: N
--
Compound: FC(F)(F)c1ccc2c(c1)N(CCCN1CCN(C3CC3)CC1)c1ccccc1S2
System: SK-OV-3 ovarian
Assigned Class: N
--
Compound: N#C/C(=C\c1cn(-c2ccccc2)c2ccccc12)C(=O)O
System: SK-OV-3 ovarian
Assigned Class: N
--
Compound: Clc1cc(Cl)cc(N2N=C(c3cccc(Nc4ccncc4)c3)CC2c2ccccc2)c1 (stereo not given)
System: SK-OV-3 ovarian
Assigned Class: N
--
Compound: CCN(CC)c1ccc(/C=N/NC(=O)c2ccc(Nc3ccnc(C(F)(F)F)c3)cc2)c(O)c1
System: SK-OV-3 ovarian
Assigned Class: Y
--
Compound: COC(=O)Nc1ccc2ccc3c(NC(=O)OC)ccc4ccc1c2c43 (tested in a mixture with another compound)
System: SK-OV-3 ovarian
Assigned Class: N
--
Compound: COc1cc(/C=C2\CCCC3=C2NC(N)=NC3c2cc(OC)c(OC)c(OC)c2)cc(OC)c1OC (stereo not given)
System: SK-OV-3 ovarian
Assigned Class: N
--
Compound: COc1ccc(-c2ccc(/C=N/n3cn[nH]c3=S)o2)c([N+](=O)[O-])c1
System: SK-OV-3 ovarian
Assigned Class: N
